Molecular target: human alpha2C receptors (Homo sapiens, UniProt P18825)
Construct: host or cells: CHO cells, cotransfected with pCEP-Gα16
Sequence (P18825 1-462): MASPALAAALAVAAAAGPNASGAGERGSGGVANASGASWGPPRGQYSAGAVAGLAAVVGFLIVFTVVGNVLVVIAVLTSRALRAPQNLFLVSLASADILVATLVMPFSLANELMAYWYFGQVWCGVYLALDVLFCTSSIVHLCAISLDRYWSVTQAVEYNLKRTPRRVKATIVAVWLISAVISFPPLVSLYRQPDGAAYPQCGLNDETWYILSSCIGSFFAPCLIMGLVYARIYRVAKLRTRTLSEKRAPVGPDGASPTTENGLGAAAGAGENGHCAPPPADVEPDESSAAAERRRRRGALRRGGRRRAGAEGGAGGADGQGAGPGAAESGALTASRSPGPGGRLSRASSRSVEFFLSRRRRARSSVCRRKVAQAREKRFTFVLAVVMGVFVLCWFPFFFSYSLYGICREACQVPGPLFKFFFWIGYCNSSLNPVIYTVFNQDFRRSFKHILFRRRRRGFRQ
Experiment: Determination of alpha2C antagonistic activity in vitro (FLIPR calcium assay, CHO cells)
Assay type: cell-based
Conditions: Kb calculated with the Cheng-Prusoff equation from IC50; adrenaline as agonist; CHO cells, human alpha2C; read-out: Alpha 2C Adrenaline Kb
quantity name: log10 Kb (log10 of the value in nM)
Units before log transform: nM; reported quantity: Kb; transform: log10.

# annotated cases, reported log10 Kb shown
| molecule | target of assay | log10 Kb |
| --- | --- | --- |
| Cc1cccc(-n2nc(C)cc2N2CCN(C[C@H]3COc4ccccc4O3)CC2)n1 [Compound of example 40] | human alpha2C receptors (Homo sapiens, UniProt P18825) | 0.41 |
| O=C1NCCN1c1nsnc1N1CCN(C[C@H]2COc3ccccc3O2)CC1 [Compound of example 30] | human alpha2C receptors (Homo sapiens, UniProt P18825) | -0.28 |
| c1cnc(Nc2nsnc2N2CCN(C[C@H]3COc4ccccc4O3)CC2)nc1 [Compound of example 18] | human alpha2C receptors (Homo sapiens, UniProt P18825) | 1.48 |
| Cc1c(N2CCNC2=O)c(N2CCN(C[C@H]3COc4ccccc4O3)CC2)nn1C [Compound of example 9] | human alpha2C receptors (Homo sapiens, UniProt P18825) | -0.26 |
| COCc1nc(N2CCN(C[C@H]3COc4ccccc4O3)CC2)no1 [Compound of example 23] | human alpha2C receptors (Homo sapiens, UniProt P18825) | 3.13 |

Exercise: Return log10 Kb measured with human alpha2C receptors (Homo sapiens, UniProt P18825) given this molecule: CC(=O)Nc1nsnc1N1CCN(C[C@H]2COc3ccccc3O2)CC1 [Compound of example 16]
Key: 3.62

Exercise: Do the same for Cc1nsc(N2CCN(C[C@H]3COc4ccccc4O3)CC2)c1N1CCCC1=O [Compound of example 31] please
Key: 0.22

----------
Molecular target: human alpha2A receptors (Homo sapiens, UniProt P08913)
Sequence (P08913 whole entry): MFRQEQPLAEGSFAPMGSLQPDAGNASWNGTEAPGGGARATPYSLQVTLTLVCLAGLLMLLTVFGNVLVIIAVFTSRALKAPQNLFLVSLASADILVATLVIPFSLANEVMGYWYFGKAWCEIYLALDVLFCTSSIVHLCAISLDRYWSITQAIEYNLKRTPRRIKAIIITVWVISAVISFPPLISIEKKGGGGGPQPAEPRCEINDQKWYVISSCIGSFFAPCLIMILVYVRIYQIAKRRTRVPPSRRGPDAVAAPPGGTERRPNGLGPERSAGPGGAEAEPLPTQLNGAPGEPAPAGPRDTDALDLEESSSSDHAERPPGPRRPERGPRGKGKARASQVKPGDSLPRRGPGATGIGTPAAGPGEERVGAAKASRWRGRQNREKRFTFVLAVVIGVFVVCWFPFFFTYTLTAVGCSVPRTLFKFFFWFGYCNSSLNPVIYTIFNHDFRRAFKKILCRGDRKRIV
Assay: Determination of alpha2A antagonistic activity in vitro (FLIPR calcium assay, CHO cells)
Conditions: antagonism of adrenaline stimulation; CHO cells stably transfected with human alpha2A receptor and Gα16; intracellular calcium (FLIPR); read-out: Alpha 2A Adrenaline IC50
Method: EXPERIMENT 1: Determination of alpha2A and alpha2C Antagonistic Activity In Vitro […] The growth medium was removed and the cells were incubated with the test compounds and the FLIPR Calcium 6 Assay reagent (Molecular Devices, CA, USA) for 2 h at 37° C. in dark. […] For example, if the number of plates from which results were obtained was three, 72 (4*6*3) wells were thus measured to construct dose-response relationship. […]
Counter-ions that a name gives are not always drawn.
quantity name: IC50

| compound | quantity name | result value |
| --- | --- | --- |
| O=C1OCCN1c1nsnc1N1CCN(C[C@H]2COc3ccccc3O2)CC1 | IC50 | > 10 µM |
| CC(=O)Nc1nsnc1N1CCN(C[C@H]2COc3ccccc3O2)CC1 | IC50 | > 10 µM |

Now let's try a different one.
Exercise: What value of IC50 has been reported for the following compound? c1ccc(COc2ncccc2Nc2nsnc2N2CCN(C[C@H]3COc4ccccc4O3)CC2)cc1 [Compound of example 37, hydrochloride]
Key: > 10 µM
